molecular target: cIAP2-BIR3 (Homo sapiens (Human), UniProt Q13489); experiment: BIR binding assay (FRET competition), cIAP2 BIR3
Sequence (Q13489 238-349): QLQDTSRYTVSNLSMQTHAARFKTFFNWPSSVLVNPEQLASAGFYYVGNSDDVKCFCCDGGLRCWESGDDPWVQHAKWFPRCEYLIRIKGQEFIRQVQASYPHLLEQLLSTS
pIC50: −log10 of the molar value.
Reported pIC50 is given for each of the following compounds.

// known answers, use as guide
>>> experimental_value("C[C@@H]1CN(CC(=O)N2CC(C)(C)c3[nH]c(=O)c(Cc4ccc(F)cc4)cc32)[C@@H](CN2CCO[C@H](COc3cccc(OC[C@@H]4CN(C[C@H]5CN[C@H](C)CN5CC(=O)N5CC(C)(C)c6[nH]c(=O)c(Cc7ccc(F)cc7)cc65)CCO4)c3)C2)CN1")
"7.80 to 8.10"
>>> experimental_value("C[C@@H]1CN(CC(=O)N2CC(C)(C)c3[nH]c(=O)c(Oc4ccc(Br)cc4)cc32)[C@@H](CN2CCO[C@H](C(=O)NCc3ccc(CNC(=O)[C@@H]4CN(C[C@H]5CN[C@H](C)CN5CC(=O)N5CC(C)(C)c6[nH]c(=O)c(Oc7ccc(Br)cc7)cc65)CCO4)cc3)C2)CN1")
"8.10 to 8.86"
>>> experimental_value("C[C@@H]1CN(CC(=O)N2CC(C)(C)c3[nH]c(=O)c(Cc4ccc(F)cc4)cc32)[C@@H](CN2CCC(CN(C)C(=O)Cc3cccc(C(=O)N(C)CC4CCN(C[C@H]5CN[C@H](C)CN5CC(=O)N5CC(C)(C)c6[nH]c(=O)c(Cc7ccc(F)cc7)cc65)CC4)c3)CC2)CN1")
"8.10 to 8.86"
>>> experimental_value("C[C@@H]1CN(CC(=O)N2CC(C)(C)c3[nH]c(=O)c(Cc4ccc(F)cc4)cc32)[C@@H](CN2CCO[C@H](C(=O)NCCCCNC(=O)[C@@H]3CN(C[C@H]4CN[C@H](C)CN4CC(=O)N4CC(C)(C)c5[nH]c(=O)c(Cc6ccc(F)cc6)cc54)CCO3)C2)CN1")
"7.80 to 8.10"
>>> experimental_value("Cc1c(NC(=O)[C@@H]2CN(C[C@H]3CN[C@H](C)CN3CC(=O)N3CC(C)(C)c4[nH]c(=O)c(Cc5ccc(F)cc5)cc43)CCO2)cccc1NC(=O)[C@@H]1CN(C[C@H]2CN[C@H](C)CN2CC(=O)N2CC(C)(C)c3[nH]c(=O)c(Cc4ccc(F)cc4)cc32)CCO1")
"7.80 to 8.10"
>>> experimental_value("C[C@@H]1CN(CC(=O)N2CC(C)(C)c3[nH]c(=O)c(Cc4ccc(F)cc4)cc32)[C@@H](CN2CCO[C@H](COc3ccccc3Cc3ccccc3OC[C@@H]3CN(C[C@H]4CN[C@H](C)CN4CC(=O)N4CC(C)(C)c5[nH]c(=O)c(Cc6ccc(F)cc6)cc54)CCO3)C2)CN1")
"7.80 to 8.10"

-- ask Which pIC50 value belongs to C[C@@H]1CN(CC(=O)N2CC(C)(C)c3[nH]c(=O)c(Cc4ccc(F)cc4)cc32)[C@@H](CN2CCC(CCN(C)C(=O)c3ccc(C(=O)N(C)CCC4CCN(C[C@H]5CN[C@H](C)CN5CC(=O)N5CC(C)(C)c6[nH]c(=O)c(Cc7ccc(F)cc7)cc65)CC4)cc3)CC2)CN1 ?
-- reply 8.10 to 8.86

---

molecular target: cIAP2-BIR2 (Homo sapiens (Human), UniProt Q13489); experiment: BIR binding assay (FRET competition), cIAP2 BIR2
Sequence (Q13489 158-242): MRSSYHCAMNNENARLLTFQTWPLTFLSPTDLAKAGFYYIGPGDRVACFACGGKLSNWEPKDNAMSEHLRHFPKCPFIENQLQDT
result_type: IC50

>>> experimental_value("C[C@@H]1CN(CC(=O)N2CC(C)(C)c3[nH]c(=O)c(Cc4ccc(F)cc4)cc32)[C@@H](CN2CCO[C@H](COc3cccc(OC[C@@H]4CN(C[C@H]5CN[C@H](C)CN5CC(=O)N5CC(C)(C)c6[nH]c(=O)c(Cc7ccc(F)cc7)cc65)CCO4)c3Br)C2)CN1")
"3.16 to 10 µM"
>>> experimental_value("C[C@@H]1CN(CC(=O)N2CC(C)(C)c3[nH]c(=O)c(Cc4ccc(F)cc4)cc32)[C@@H](CN2CCO[C@H](C(=O)NCCCNC(=O)[C@@H]3CN(C[C@H]4CN[C@H](C)CN4CC(=O)N4CC(C)(C)c5[nH]c(=O)c(Cc6ccc(F)cc6)cc54)CCO3)C2)CN1")
"3.16 to 10 µM"
>>> experimental_value("C[C@@H]1CN(CC(=O)N2CC(C)(C)c3[nH]c(=O)c(Cc4ccc(F)cc4)cc32)[C@@H](CN2CCO[C@H](COc3ccccc3Oc3ccccc3OC[C@@H]3CN(C[C@H]4CN[C@H](C)CN4CC(=O)N4CC(C)(C)c5[nH]c(=O)c(Cc6ccc(F)cc6)cc54)CCO3)C2)CN1")
"1 to 3.16 µM"
>>> experimental_value("C[C@@H]1CN(CC(=O)N2CC(C)(C)c3c2cc(Cc2ccc(F)cc2)c(=O)n3C)[C@@H](CN2CCO[C@H](COCc3ccc(COC[C@@H]4CN(C[C@H]5CN[C@H](C)CN5CC(=O)N5CC(C)(C)c6c5cc(Cc5ccc(F)cc5)c(=O)n6C)CCO4)cc3)C2)CN1")
"3.16 to 10 µM"
>>> experimental_value("Cc1cc(OC[C@@H]2CN(C[C@H]3CN[C@H](C)CN3CC(=O)N3CC(C)(C)c4[nH]c(=O)c(Cc5ccc(F)cc5)cc43)CCO2)cc(OC[C@@H]2CN(C[C@H]3CN[C@H](C)CN3CC(=O)N3CC(C)(C)c4[nH]c(=O)c(Cc5ccc(F)cc5)cc43)CCO2)c1")
"1 to 3.16 µM"
>>> experimental_value("C[C@@H]1CN(CC(=O)N2CC(C)(C)c3[nH]c(=O)c(Cc4ccc(F)cc4)cc32)[C@@H](CN2CCO[C@H](C(=O)N3CCN(C(=O)[C@@H]4CN(C[C@H]5CN[C@H](C)CN5CC(=O)N5CC(C)(C)c6[nH]c(=O)c(Cc7ccc(F)cc7)cc65)CCO4)CC3)C2)CN1")
"1 to 3.16 µM"

We next turn to a different compound, shown below.
-- ask Which IC50 value belongs to C[C@@H]1CN(CC(=O)N2CC(C)(C)c3[nH]c(=O)c(Cc4ccc(C(F)F)cc4)cc32)[C@@H](CN2CCO[C@H](C(=O)NCc3ccc(CNC(=O)[C@@H]4CN(C[C@H]5CN[C@H](C)CN5CC(=O)N5CC(C)(C)c6[nH]c(=O)c(Cc7ccc(C(F)F)cc7)cc65)CCO4)cc3)C2)CN1 ?
-- reply 0.0224 to 1 µM
